Data origin: ChEMBL document CHEMBL1201862

The following compounds are listed with their measured GI50 values.
system: A498; test: NCI tumour cell line growth inhibition, 48 h
Activity calls are given as the source filed them. Rule as the data show it: active = GI50 up to about 1.1 µM and inactive = higher.
recorded endpoint: GI50

CC1(C)N[PH]2(Nc3ccccc3O2)OC1=O	> 100 µM (inactive)
CCCCCCCCCCCCCCCCCCNc1nc(=O)n(C2CC(O)C(COP(=O)(O)OCC(COP(=O)(O)OC3C(CO)OC(n4ccc(N)nc4=O)C3O)OCCCCCCCCCCCCCCCCCC)O2)cc1F (stereo not given)	36.7 µM (inactive)
CN(Cc1cnc2nc(N)nc(N)c2n1)c1ccc(C(=O)NCS(=O)(=O)O)cc1	> 100 µM (inactive)
Nc1ccc(-c2nc3ccccc3s2)cc1I	28.6 µM (inactive)
Cc1nc2ccc(S(=O)(=O)O)cc2c(=O)n1-c1ccc(C(=O)NN2C(=O)C(Cl)C2c2ccccc2O)cc1 (stereo not given)	> 100 µM (inactive)
CC1(C)CCCC2CC2CCC(C)(C)C1=O (stereo not given)	> 100 µM (inactive)
COC1OCC(O)C(NC(=O)N(C)N=O)C1O (stereo not given)	> 100 µM (inactive)
C[C@]12CC[C@H](OC3CCCCO3)CC1=CC[C@@H]1C2CC[C@]2(C)/C(=N/O)CCC12 (stereo not given in full)	> 100 µM (inactive)
CC(=O)c1ccc(NC(=O)C(=O)CC(=O)c2sc(-n3nc(-c4ccccc4)cc3-c3ccccc3)nc2C)cc1	> 100 µM (inactive)
COc1ccc(C(=C2C(=O)OC(=O)C2=C(C)C)c2ccc(OC)cc2)cc1	> 100 µM (inactive)

---

system: SNB-75; experiment: NCI tumour cell line growth inhibition, 48 h
Activity calls are given as the source filed them. Cut-off read from the data, not from the text of the source: active = GI50 up to about 1.1 µM and inactive = higher.
recorded endpoint: GI50

Cc1cc(N(CCC#N)CCC#N)ccc1/C=C(\NC(=O)/C=C/c1ccccc1)C(=O)Nc1ccc(Cl)cc1	> 52.4 µM (inactive)
C/C(=N\NC(=O)CC(=O)Nc1ccc(C)cc1)c1cc2ccccc2oc1=O	20.2 µM (inactive)
CC(=O)NCCCCNCCCNC(C)=O	> 100 µM (inactive)
COC(=O)[C@H](Cc1ccccc1)NP(=O)(OCCC#N)OCC1OC(n2cc(C)c(=O)[nH]c2=O)CC1N=[N+]=[N-] (stereo not given in full)	> 100 µM (inactive)
CN(C)C(=S)NC(=S)Nc1ccc2ccccc2c1	24.3 µM (inactive)

---

test system: ACHN; experiment: NCI tumour cell line growth inhibition, 48 h
The source made the active and inactive calls. Rule as the data show it: active = GI50 up to about 1.1 µM and inactive = higher.
recorded endpoint: GI50

N#Cc1c(N2CCOCC2)[nH]c(=O)c(C(c2c(Cl)cccc2Cl)c2c(O)c(C#N)c(N3CCOCC3)[nH]c2=O)c1O	16.1 µM (inactive)
CCOC(=O)C1COc2cc(-c3cc(=O)c4ccccc4o3)ccc2O1 (stereo unspecified)	> 100 µM (inactive)
CCN(CC)CCNc1ccc2ncn3c4ccccc4c(=O)c1c23	2.24 µM (inactive)
CCCCNC(=O)c1cc2c(cc1Cl)Sc1nccn1S2(=O)=O	82 µM (inactive)
CC(Oc1ccccc1)C(=O)NN (stereo unspecified)	> 100 µM (inactive)
N=c1n(CC(=O)NC23CC4CC(CC(C4)C2)C3)c2ccccc2n1CC(=O)NC12CC3CC(CC(C3)C1)C2	2 µM (inactive)
NC(=O)c1nnsc1NC=O	> 100 µM (inactive)
COc1ccccc1/C=C\c1cnnc2ccccc12	> 10 µM (inactive)
O=C(O)CCCc1nc2c(n1Cc1ccccc1)C(=O)c1ccccc1C2=O	45.2 µM (inactive)
O=C(N/N=C/c1ccccc1O)N/N=C/c1ccccc1O	> 100 µM (inactive)
CCCCC1NC=Nc2c1ccc1c2[nH]c2ccccc21 (stereo unspecified)	3.61 µM (inactive)

---

tested on: LOX IMVI; test: NCI tumour cell line growth inhibition, 48 h
Activity calls are given as the source filed them. No stated cut-off is given here; in the data, active = GI50 up to about 1.1 µM and inactive = higher.
Outcome codes: active, inactive

COc1c(CC=C(C)C)c(O)c(C(CC(C)C)c2c(O)c(C(C)=O)c(O)c3c2OC(C(C)(C)O)C3)c(O)c1C(C)=O (centres undefined)	inactive
CCOC(=O)C1COc2cc(-c3cc(=O)c4ccccc4o3)ccc2O1 (centres undefined)	inactive
CC(C)=CC(=O)C[C@H]1C(=O)O[C@@H]2C[C@H]3C(C)=CC(=O)[C@@H](O)[C@]3(C)[C@H]3[C@@]4(O)OC[C@]32[C@@H]1[C@@H](C)[C@H]4O	active
CCOC(=O)C(C(=S)Nc1ccccc1)c1nn2c(=O)cc(C)nc2s1 (centres undefined)	inactive
CC(C)(Oc1ccc(C(=O)c2ccc(Cl)cc2)cc1Cl)C(=O)Nc1c(Cl)cccc1Cl	inactive
COP12(OC)NC(=O)OC1(C(F)(F)F)c1ccccc1O2 (centres undefined)	inactive
CSc1c(C#N)c(O)nc(N)c1C(=O)Nc1ccc(Cl)cc1	inactive
CC1CC#CCOC(=O)CCCC1=O (centres undefined)	inactive
CC1(C)CCCC2(C)[C@@H]1CC[C@@]13CC(=O)[C@@](C)(CC[C@@H]21)C3 (some centres undefined)	inactive
O=c1cc(/C=C/c2ccccc2)c2ccc(O/C(=C\c3ccccc3)c3nc4ccccc4c(=O)o3)cc2o1	inactive
COc1ccccc1/C=C\c1cnnc2ccccc12	inactive
Cc1cccc(C(C)C)c1NC(=O)C(=O)CC(=O)c1sc(Nc2ccccc2Cl)nc1C	inactive
CC(=O)c1c(CO[N+](=O)[O-])[n+]([O-])c2ccccc2[n+]1[O-]	inactive
CS(=O)(=O)NNS(=O)(=O)c1ccc(Br)cc1	inactive
O=C1c2cccc3cc([N+](=O)[O-])cc(c23)C(=O)N1CCCN1CCN(CCCNc2ccc3ncn4c5ccccc5c(=O)c2c34)CC1	active
C/C=C(\C)c1cc(=O)c2c(C)cc3c(c2o1)C(=O)c1c(O)c(C2CC(C)(N(C)C)C(OC(C)=O)C(C)O2)cc(C2CC(N(C)C)C(O)C(C)O2)c1C3=O (centres undefined)	active
O/N=C1\SC(=N\O)/C(=N/O)S\C1=N/O	inactive
O=C1CNCCCN2CCN(CCCNCC(=O)Nc3ccc(cc3)S(=O)(=O)c3ccc(cc3)NC(=O)CNCCCN3CCN(CCCNCC(=O)Nc4ccc(cc4)S(=O)(=O)c4ccc(cc4)N1)CC3)CC2	inactive
CC1(C)N=C(N)N=C(N)N1c1cccc(C(=O)Nc2ccc(S(=O)(=O)F)cc2)c1	inactive
N=C(N)n1nc2c(c1O)CCCC2	inactive
O=C(O)c1nnsc1COCc1ccccc1	inactive
CC(=O)O[C@H]1C[C@H]2C(=S)Nc3ccccc3C(=S)N2C1	inactive
COC(=O)c1ccc(Oc2nc3ccccc3nc2-c2cccs2)cc1	inactive
O=c1[nH]c2c(O)cccc2c2cc3c(c(O)c12)OCO3	inactive
Cc1c(C(=O)CC(=O)C(=O)Nc2cccc(C(F)(F)F)c2)[n+]([O-])c2ccccc2[n+]1[O-]	inactive
CC(=O)OCC1OC(n2cnc3nc(Br)[nH]c(=O)c32)C(OC(C)=O)C1OC(C)=O (centres undefined)	inactive
O=c1ccn(C2OC(CO)C(O)C2[Se]c2ccccc2)c(=O)[nH]1 (centres undefined)	inactive
COC(=O)CCC(=O)Nc1cc(Cl)ccc1Cl	inactive
O=C(O)c1ccc2c(c1)C(=O)N(c1ccc(S(=O)(=O)c3ccc(N4C(=O)c5ccc(C(=O)O)cc5C4=O)cc3)cc1)C2=O	inactive
COc1nc(NC2OCC(OC(C)=O)C(OC(C)=O)C2OC(C)=O)c(/N=C(\C)C(C)=O)c(=O)n1C (centres undefined)	inactive
O=C1CCCCCCCCCCC(=O)N2CCOCCOCCN1Cc1cccc(n1)C2	inactive
Cc1cc2c(C)cc(=O)[nH]c2cc1N	inactive
CCN(C(=O)N[C@@H](CC(C)C)C(=O)NCC(=O)OC)c1ccccc1	inactive
OC12c3ccccc3C3CCC4(OCCO4)C3C1c1ccccc12 (centres undefined)	inactive
Clc1ccc2sc(-n3ccc4ccccc43)nc2c1	inactive
O=C1NC(=S)N/C1=C\c1cc2c(=O)c3ccccc3sc2s1	inactive
CC(Oc1ccccc1)C(=O)NN (centres undefined)	inactive
O=C1COc2cccnc2N1CCCCO	inactive
CC(=O)OCC1OC(Sc2nc(-c3ccccc3)c(C#N)c(=O)n2C2OC(COC(C)=O)C(OC(C)=O)C(OC(C)=O)C2OC(C)=O)C(OC(C)=O)C(OC(C)=O)C1OC(C)=O (centres undefined)	inactive

---

tested on: SW-620; assay: NCI tumour cell line growth inhibition, 48 h
The source made the active and inactive calls. No stated cut-off is given here; in the data, active = GI50 up to about 1.1 µM and inactive = higher.
Outcome codes: active, inactive

Cc1cc2c(c(C(N)=O)c1C)-c1cccc(F)c1C2=O	inactive
CN1C(=O)CC2(C)c3cc(C=O)ccc3N(C)C12 (stereo not given)	inactive
Nc1c(F)c(F)c2c(c1F)N(CCCCCl)c1ccccc1S2	inactive
O=C1c2ccccc2C(=O)C2C1C1C(=O)c3ccccc3C(=O)C21 (stereo not given)	inactive
COc1cc2ccnc(-c3c4ccccc4c(N)c4c(OC)c(OC)ccc34)c2cc1OC	inactive
Cc1cccc(C(C)C)c1NC(=O)C(=O)CC(=O)c1sc(Nc2ccccc2Cl)nc1C	inactive
CC(C)=CC(=O)C[C@H]1C(=O)O[C@@H]2C[C@H]3C(C)=CC(=O)[C@@H](O)[C@]3(C)[C@H]3[C@@]4(O)OC[C@]32[C@@H]1[C@@H](C)[C@H]4O	active
CC(Oc1ccc(Cl)cc1Cl)C(=O)NN1C(=O)CSC1c1ccccc1 (stereo not given)	inactive
O=C(CCN1CCCCC1)Nc1ccc2c(c1)C(=O)c1ccc(NC(=O)CCN3CCCCC3)cc1C2=O	inactive
O=C1c2cccc3cc([N+](=O)[O-])cc(c23)C(=O)N1CCCN1CCN(CCCNc2ccc3ncn4c5ccccc5c(=O)c2c34)CC1	active
